# systemName: 3-phosphoinositide-dependent protein kinase 1 (Homo sapiens)
# Sequence (O15530 whole entry): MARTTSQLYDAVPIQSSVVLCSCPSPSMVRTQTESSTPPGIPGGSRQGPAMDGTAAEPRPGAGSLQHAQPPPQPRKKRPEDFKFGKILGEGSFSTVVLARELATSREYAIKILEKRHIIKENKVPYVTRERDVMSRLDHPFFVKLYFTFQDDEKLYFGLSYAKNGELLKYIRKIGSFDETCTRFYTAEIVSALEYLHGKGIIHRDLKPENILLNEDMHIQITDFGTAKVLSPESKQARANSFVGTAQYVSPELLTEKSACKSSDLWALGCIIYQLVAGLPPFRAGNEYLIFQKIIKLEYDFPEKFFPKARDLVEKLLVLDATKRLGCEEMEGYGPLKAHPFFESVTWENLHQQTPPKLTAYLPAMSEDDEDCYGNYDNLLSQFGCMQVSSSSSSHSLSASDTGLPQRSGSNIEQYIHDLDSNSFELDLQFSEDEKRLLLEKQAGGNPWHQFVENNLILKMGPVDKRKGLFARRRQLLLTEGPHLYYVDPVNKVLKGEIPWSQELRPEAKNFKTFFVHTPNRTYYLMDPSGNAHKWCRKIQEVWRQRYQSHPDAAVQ
# procedureDetails: Inhibition of human GST-tagged-PDK1 expressed in HEK293 cells
measurementName: IC50 (nM)

These recorded examples may help you get a feel for the data.
# smilesData, systemName, measurementName, recordedNumber
rows = [
    ("COc1cc2ncc3c(N)nc(-c4cncc(OC[C@@H](N)Cc5ccncc5)c4)cc3c2cc1OC", "3-phosphoinositide-dependent protein kinase 1 (Homo sapiens)", "IC50", 9),
    ("CC[C@@H](N)COc1cncc(-c2cc3c(cnc4cc(OC)c(OC)cc43)c(N)n2)c1", "3-phosphoinositide-dependent protein kinase 1 (Homo sapiens)", "IC50", 3),
    ("COc1cc2ncc3c(N)nc(-c4cncc(OC[C@@H](N)CC(C)C)c4)cc3c2cc1OC", "3-phosphoinositide-dependent protein kinase 1 (Homo sapiens)", "IC50", 14),
]

P: COc1cc2ncc3c(N)nc(-c4cncc(OC[C@H](N)CC(C)C)c4)cc3c2cc1OC
Q: COc1cc2ncc3c(N)nc(-c4cncc(OC[C@@H](C)N)c4)cc3c2cc1OC
QUERY: Rank P against Q by their IC50 values and give the higher one. Response format: the label of the selected entry.
RESULT: P
